# MEASUREMENT PROTOCOL: Stability of the ginsenosides in rat plasma (QC samples)
# Format: in vitro ADME
# EXPERIMENTAL SETUP: extracted middle QC (142.4 Rb1, 62.5 Rb2, 48.8 Rd, 98.6 Re ng/mL); autosampler 4°C for 12 h
MEASURED ATTRIBUTE: Recovery (%) Postpreparation
State the answer as a number, implicitly in %.

Ask | Which Recovery (%) Postpreparation value is on record for CC(C)=CCC[C@](C)(O[C@@H]1O[C@H](CO)[C@@H](O)[C@H](O)[C@H]1O)[C@H]1CC[C@]2(C)[C@@H]1[C@H](O)C[C@@H]1[C@@]3(C)CC[C@H](O)C(C)(C)[C@@H]3[C@@H](O[C@@H]3O[C@H](CO)[C@@H](O)[C@H](O)[C@H]3O[C@@H]3O[C@@H](C)[C@H](O)[C@@H](O)[C@H]3O)C[C@]12C ?
Reply | 97.21

* * *

# MEASUREMENT PROTOCOL: Stability of the ginsenosides in rat plasma (QC samples)
# Assay type: in vitro ADME
# EXPERIMENTAL SETUP: rat plasma, middle QC (142.4 Rb1, 62.5 Rb2, 48.8 Rd, 98.6 Re ng/mL); 1 month at −80°C
MEASURED ATTRIBUTE: Recovery (%) Short term
State the answer as a number, implicitly in %.

SUBSTANCE SMILES	Recovery (%) Short term
CC(C)=CCC[C@](C)(O[C@@H]1O[C@H](CO)[C@@H](O)[C@H](O)[C@H]1O)[C@H]1CC[C@]2(C)[C@@H]1[C@H](O)C[C@@H]1[C@@]3(C)CC[C@H](O)C(C)(C)[C@@H]3[C@@H](O[C@@H]3O[C@H](CO)[C@@H](O)[C@H](O)[C@H]3O[C@@H]3O[C@@H](C)[C@H](O)[C@@H](O)[C@H]3O)C[C@]12C	99.25
CC(C)=CCC[C@](C)(O[C@@H]1O[C@H](CO[C@@H]2O[C@H](CO)[C@@H](O)[C@H](O)[C@H]2O)[C@@H](O)[C@H](O)[C@H]1O)[C@H]1CC[C@]2(C)[C@@H]1[C@H](O)C[C@@H]1[C@@]3(C)CC[C@H](O[C@@H]4O[C@H](CO)[C@@H](O)[C@H](O)[C@H]4O[C@@H]4O[C@H](CO)[C@@H](O)[C@H](O)[C@H]4O)C(C)(C)[C@@H]3CC[C@]12C	100.48
CC(C)=CCC[C@](C)(O[C@@H]1O[C@H](CO)[C@@H](O)[C@H](O)[C@H]1O)[C@H]1CC[C@]2(C)[C@@H]1[C@H](O)C[C@@H]1[C@@]3(C)CC[C@H](O[C@@H]4O[C@H](CO)[C@@H](O)[C@H](O)[C@H]4O[C@@H]4O[C@H](CO)[C@@H](O)[C@H](O)[C@H]4O)C(C)(C)[C@@H]3CC[C@]12C	103.61

For the next question, use this compound.
Ask | Which Recovery (%) Short term value is on record for CC(C)=CCC[C@](C)(O[C@@H]1O[C@H](CO[C@@H]2OC[C@H](O)[C@H](O)[C@H]2O)[C@@H](O)[C@H](O)[C@H]1O)[C@H]1CC[C@]2(C)[C@@H]1[C@H](O)C[C@@H]1[C@@]3(C)CC[C@H](O[C@@H]4O[C@H](CO)[C@@H](O)[C@H](O)[C@H]4O[C@@H]4O[C@H](CO)[C@@H](O)[C@H](O)[C@H]4O)C(C)(C)[C@@H]3CC[C@]12C ?
Reply | 95.33
